B1: GLTSCR2 (parent)
chain: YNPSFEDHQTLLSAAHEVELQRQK

- Variants of: B1
- Test: protein stability index of a GFP-peptide fusion (GPS, HEK-293T) (PSI 1-6); higher = more stable;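 also: lentivirally expressed fusions sorted by FACS into six bins by GFP to DsRed ratio, PSI derived from sequencing read proportions per bin multiplied by bin number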
- Stated Conditions: c terminus: a fixed tail appended
Parameter threshold = 4. Response is 1 (yes) when protein stability index meets or exceeds it, else 0 (no).

INSERT INTO assay_data (mutation_key, group) VALUES
  ('E6W', '0 (no)');

Data request: // inclusive: protein stability index at least 4? input: `E6V`
Data returned: 0 (no)

Data request: hey, is protein stability index for this one >= 4? `R22Y`
Data returned: 0 (no)

Data request: Entry `A15L` : is its protein stability index no less than 4?
Data returned: 0 (no)

Data request: Please tell me: is the variant `P3S` at or over 4 in terms of protein stability index?
Data returned: 1 (yes)

Data request: Check this variant for protein stability index at or above 4: `L20P`
Data returned: 1 (yes)

Data request: Reported protein stability index at or above 4? `Q21N`
Data returned: 0 (no)

Data request: Entry `D7L` : is its protein stability index no less than 4?
Data returned: 0 (no)
